IC50 values recorded for HSD17B1 (Homo sapiens (Human), UniProt P14061)
Measurement name: IC50 (µM)

Answered examples (5):
Cc1ccc2c(c1)Oc1cccc(C)c1C2NC(=O)c1ccc(C(F)(F)F)[nH]c1=O (stereo not shown) : 3.69
Cc1ccc(C(NC(=O)c2ccc(C(F)(F)F)[nH]c2=O)C2CCCCC2)cc1 (stereo not shown) : 25.1
O=C(NC(c1ccccc1)c1ccc(-c2cccnc2)cc1)c1ccc(C(F)(F)F)[nH]c1=O (stereo not shown) : 15.6
Cc1ccc2c(c1)Oc1cc(C)ccc1C2NC(=O)c1cc(C2CCOCC2)c(C(F)(F)F)[nH]c1=O : 7.64
O=C(NC1c2ccc(Cl)cc2Oc2cccc(Cl)c21)c1ccc(C(F)(F)F)[nH]c1=O (stereo not shown) : 4.55

(a) Cc1ccc2c(c1)Oc1cc(C)ccc1C2NC(=O)c1cc(C2CCCCC2)c(C(F)(F)F)[nH]c1=O
(b) Cc1ccc2c(c1)Oc1cc(C)ccc1C2NC(=O)c1cc(-c2ncccn2)c(C(F)(F)F)[nH]c1=O
Q. Could you kindly indicate whether a or b has the higher IC50 value? Give the label of your selection.
A. a

(1) Cc1ccc2c(c1)Oc1cc(C)ccc1C2NC(=O)c1cc(OC2CCOCC2)c(C(F)(F)F)[nH]c1=O
(2) Cc1ccc2c(c1)Oc1cc(C)ccc1C2NC(=O)c1cc(-c2ccccn2)c(C(F)(F)F)[nH]c1=O
Q. Could you kindly indicate whether 1 or 2 has the higher IC50 value? Give the label of your selection.
A. 1
(1: 11.1 µM, 2: 2.19 µM)

###

assay: Microsome stability assay, human liver microsomes; assay type: in vitro ADME; conditions: 60 min; 1 μM compound, 0.5 mg/mL microsomal protein
Measurement name: Microsome Stability Human liver microsomes % Remaining @60 min (%)

Answered examples (5):
O=C(NC(c1ccccc1)c1ccccc1)c1ccc(C(F)(F)F)[nH]c1=O : 66.90
Nc1cccc2c(NC(=O)c3ccc(C(F)(F)F)[nH]c3=O)cccc12 : 60.40
O=C(NC(Cc1ccccc1)c1ccc(Cl)cc1)c1ccc(C(F)(F)F)[nH]c1=O (stereo not shown) [Compound 19A] : 8.05
Cc1ccc2c(c1)Oc1cc(Cl)ccc1C2NC(=O)c1ccc(C(F)(F)F)[nH]c1=O (stereo not shown) : 72.40
CCCc1ccc(C(NC(=O)c2ccc(C(F)(F)F)[nH]c2=O)c2ccccc2)cc1 (stereo not shown) : 2.00

(A) Cc1cccc(C(NC(=O)c2ccc(C(F)(F)F)[nH]c2=O)c2ccccc2)c1 (stereo not shown)
(B) COc1ccc2c(c1)CCC2NC(=O)c1ccc(C(F)(F)F)[nH]c1=O (stereo not shown)
Q. Could you kindly indicate whether A or B has the higher Microsome Stability Human liver microsomes % Remaining @60 min value? Give the label of your selection.
A. A
(A: 1%, B: 0.27%)

(A) CC(C)Cc1ccc(C(NC(=O)c2ccc(C(F)(F)F)[nH]c2=O)c2ccccc2)cc1 (stereo not shown)
(B) O=C(NC1c2ccccc2Oc2ccccc21)c1ccc(C(F)(F)F)[nH]c1=O
Q. Could you kindly indicate whether A or B has the higher Microsome Stability Human liver microsomes % Remaining @60 min value? Give the label of your selection.
A. A
(A: 1.44%, B: 1.00%)

###

experiment: Microsome stability assay, human liver microsomes; type: in vitro ADME; conditions: human, human liver microsomes, pooled; 1 μM compound, 0.5 mg/mL microsomal protein, NADPH, 37° C.; read-out: Microsome Stability Human liver microsomes T½
Measurement name: half-life at 1 h, 1 µM (min)

CCC1Cc2cc(C)ccc2C1NC(=O)c1ccc(C(F)(F)F)[nH]c1=O (stereo not shown) [Compound 298] : 3.08
Cc1ccc(C(NC(=O)c2ccc(C(F)(F)F)[nH]c2=O)c2ccccc2)cc1 (stereo not shown) [Compound 27] : 2.71
Cc1ccc2c(c1)SC(C)CC2NC(=O)c1ccc(C(F)(F)F)[nH]c1=O (stereo not shown) [Compound 385] : 2.15
COc1ccc2c(c1)Oc1cnccc1C2NC(=O)c1ccc(C(F)(F)F)[nH]c1=O (stereo not shown) [Compound 327] : 87.7
O=C(NC(c1ccccc1)c1ccccc1O)c1ccc(C(F)(F)F)[nH]c1=O (stereo not shown) [Compound 35] : 21.9

(1) Cc1ccc2c(c1)Sc1cc(C)ccc1C2NC(=O)c1ccc(C(F)(F)F)[nH]c1=O [Compound 252]
(2) Cc1cccc(C(NC(=O)c2ccc(C(F)(F)F)[nH]c2=O)c2ccccc2)c1 (stereo not shown) [Compound 490]
Q. Hi there, can you help? I need to know whether 1 or 2 has lower measured half-life at 1 h, 1 µM. Give the label of your selection.
A. 2
(2: 6.83 min, 1: 126 min)

(A) O=C(NC(Cc1ccccc1)c1ccc(Cl)cc1)c1ccc(C(F)(F)F)[nH]c1=O (stereo not shown) [Compound 19A]
(B) Cc1ccc2c(c1)[C@H](O)CC[C@H]2NC(=O)c1ccc(C(F)(F)F)[nH]c1=O [Compound 311]
(C) COc1ccc2c(c1)CCC2NC(=O)c1ccc(C(F)(F)F)[nH]c1=O (stereo not shown) [Compound 134]
(D) CCCC1CCc2cc(OC)ccc2C1NC(=O)c1ccc(C(F)(F)F)[nH]c1=O (stereo not shown) [Compound 289]
(E) COC1Cc2cc(C)ccc2C1NC(=O)c1ccc(C(F)(F)F)[nH]c1=O (stereo not shown) [Compound 351]
Q. Hello, I need these entries ordered by half-life at 1 h, 1 µM, highest reading first. Thanks! Output the labels ranked as instructed.
A. B, D, A, E, C
(B: 132 min, D: 23.1 min, A: 15.6 min, E: 8.84 min, C: 3.38 min)

###

biological target: HSD17B13 (Homo sapiens (Human), UniProt Q7Z5P4); experiment: HSD17B13 enzymatic inhibition assay (150 nM or 50 nM HSD17B13); assay type: biochemical; settings: 50 nM HSD17B13; read-out: Inhibition of 50 nM of HSD17B13 IC50
Sequence (Q7Z5P4 other isoform, or with tags, fused parts or gaps): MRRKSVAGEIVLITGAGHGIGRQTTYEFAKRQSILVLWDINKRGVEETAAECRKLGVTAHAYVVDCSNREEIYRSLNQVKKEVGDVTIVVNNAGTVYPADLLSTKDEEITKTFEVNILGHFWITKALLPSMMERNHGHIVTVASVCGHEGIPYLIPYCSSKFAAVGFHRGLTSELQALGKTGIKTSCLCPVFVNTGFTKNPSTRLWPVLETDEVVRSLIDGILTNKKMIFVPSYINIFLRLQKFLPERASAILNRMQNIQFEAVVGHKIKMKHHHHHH
pIC50: −log10 of the molar value.
Measurement name: pIC50

Answered examples (3):
Cc1ccc2c(c1)Oc1cccc(C)c1C2NC(=O)c1cc(CCc2ccccc2)c(C(F)(F)F)[nH]c1=O (stereo not shown) : 6.82
CCCc1ccc2c(c1)C(NC(=O)c1ccc(C(F)(F)F)[nH]c1=O)c1ccccc1O2 (stereo not shown) : 6.92
O=C(NC1c2ccc(Cl)cc2Oc2cc(Cl)ccc21)c1cnc(COc2cccc(C(F)(F)F)c2)[nH]c1=O : 5.97

(a) Cc1cnc2c(c1)Oc1ccccc1C2NC(=O)c1ccc(C(F)(F)F)[nH]c1=O (stereo not shown)
(b) O=C(NC1c2ccccc2Oc2cc(CC(F)(F)F)ccc21)c1ccc(C(F)(F)F)[nH]c1=O (stereo not shown)
Q. Hi there, can you help? I need to know whether a or b has lower measured pIC50. Give the label of your selection.
A. b
(b: 6.44, a: 7.40)

(A) O=C(NC1c2ccccc2Oc2ccccc21)c1ccc(C(F)(F)F)[nH]c1=O
(B) O=C(NC(c1ccccc1)c1ccc(C2CCOC2)cc1)c1ccc(C(F)(F)F)[nH]c1=O (stereo not shown)
Q. Hi there, can you help? I need to know whether A or B has lower measured pIC50. Give the label of your selection.
A. B

(A) C=Cc1cc(C(=O)NC(c2ccc(C)cc2)c2ccc(C)cc2)c(=O)[nH]c1C(F)(F)F
(B) COc1ccc2c(c1)CCC2NC(=O)c1ccc(C(F)(F)F)[nH]c1=O (stereo not shown)
(C) Cc1ccc(C(CC2CCCCC2)NC(=O)c2ccc(C(F)(F)F)[nH]c2=O)cc1 (stereo not shown)
Q. Task for the reader: rank each entry by its pIC50, from the minimum upward. Output the labels ranked as instructed.
A. B, A, C
(B: 5.85, A: 6.52, C: 6.80)

###

assay: Microsome stability assay, human liver microsomes; assay type: in vitro ADME; conditions: human, human liver microsomes, pooled; 1 μM compound, 0.5 mg/mL microsomal protein, NADPH, 37° C.; read-out: Microsome Stability Human liver microsomes T½
Measurement name: half-life at 1 μM

Answered examples (3):
O=C(NC1c2ccc(Cl)cc2Oc2cc(Cl)ccc21)c1ccc(C(F)(F)F)[nH]c1=O [Compound 50] : > 2.42 h
Cc1ccc2c(c1)[C@@H](O)CC[C@H]2NC(=O)c1ccc(C(F)(F)F)[nH]c1=O [Compound 312] : > 2.42 h
CS(=O)(=O)Nc1ccc(C(NC(=O)c2ccc(C(F)(F)F)[nH]c2=O)c2ccccc2)cc1 (stereo not shown) [Compound 7A] : > 2.42 h

Briefly, half-life at 1 μM measured for Cc1ccc2c(c1)[C@H](NC(=O)c1ccc(C(F)(F)F)[nH]c1=O)C[C@@H](C)N2 [Compound 370] : > 2.42 h

Briefly, half-life at 1 μM measured for O=C(NC(c1ccccc1)c1ccc(CC(F)(F)F)cc1)c1ccc(C(F)(F)F)[nH]c1=O (stereo not shown) [Compound 12] : > 2.42 h

Briefly, half-life at 1 μM measured for Cc1ccc2c(c1)Oc1cc(C)ccc1C2NC(=O)c1ccc(C(F)(F)F)[nH]c1=O [Compound 52] : > 2.42 h
